TARGET_UNDER_TEST: UniProt:P04058
Sequence (P04058 22-564): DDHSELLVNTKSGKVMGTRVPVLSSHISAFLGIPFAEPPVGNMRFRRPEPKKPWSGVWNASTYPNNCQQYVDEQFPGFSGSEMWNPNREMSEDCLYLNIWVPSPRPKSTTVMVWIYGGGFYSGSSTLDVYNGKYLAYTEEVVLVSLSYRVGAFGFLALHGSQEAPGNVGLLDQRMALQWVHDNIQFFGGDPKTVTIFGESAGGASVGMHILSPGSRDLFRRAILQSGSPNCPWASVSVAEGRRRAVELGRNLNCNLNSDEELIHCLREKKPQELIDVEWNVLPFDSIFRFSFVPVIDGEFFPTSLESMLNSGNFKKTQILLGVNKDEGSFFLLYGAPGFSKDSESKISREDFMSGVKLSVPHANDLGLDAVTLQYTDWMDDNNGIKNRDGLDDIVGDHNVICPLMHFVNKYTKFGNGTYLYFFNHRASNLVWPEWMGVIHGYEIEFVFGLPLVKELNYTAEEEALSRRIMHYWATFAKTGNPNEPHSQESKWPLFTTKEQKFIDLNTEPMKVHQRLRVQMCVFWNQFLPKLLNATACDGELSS
EXPERIMENT_NOTES: Ellman colorimetric AChE assay with acetylthiocholine iodide and DTNB, […] nm, triplicate
Type: biochemical
OBSERVABLE: IC50
Write down the value, and be sure its unit follows.

## Input I'd like to know its IC50. The compound in question is Cc1nc2ccccc2c2cc[nH]c12 [compound 1, 4-Methyl-3H-pyrrolo[2,3-c]quinoline]
## Output 4.9 µM
